Target: T1, human Bcl-w a.a. 1-182 with C-terminal avi-6his tag (human, UniProt Q92843 1-182)
T1 construct: range 1-182; also called BCL2L2
T1 sequence: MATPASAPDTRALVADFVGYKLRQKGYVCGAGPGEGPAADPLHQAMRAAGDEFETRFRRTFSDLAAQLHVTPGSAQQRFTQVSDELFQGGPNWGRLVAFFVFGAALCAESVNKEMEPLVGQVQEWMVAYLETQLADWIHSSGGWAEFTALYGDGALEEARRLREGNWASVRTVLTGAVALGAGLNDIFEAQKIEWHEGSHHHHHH
Experiment: BLI, biotinylated target on streptavidin sensor, range of analyte concentrations
Let's look at some binders and their measured Kd.
# output: number + unit

- F-ECM04 (designed binder) ADPKKVLDKAKDQAENRVRELKQKLEELYKEARKLDLTQEMRKKLEVAALGAVLAAHGDILNAIMQAKEEADKLKKAGLVNSQQLDELKRRLEELKEEALRKASDYGKEFHLKRRYG: 3.8 µM
- X-CDP07 (designed binder) ADPKKVLDKAKDRAENVVRKLKKELEELYKEARKLDLTQEMRDRIRLAAIAARIAAFGDIFHAIMEALEEARKLKKAGLVNSQQLDELKRRLEELDEEAAQRAEKLGKEFELKLEY: 0.0149 µM
- 2-CDP06 (designed binder) ADPKKVLDKAKDEAENRVRELKQKLEELYKEARKLDLTQEMRQELVDKARAASLQASGDIFYAILRALAEAEKLKKAGLVNSQQLDELKRRLEELAEEARRKAEKLGDEFRLKLEY: 1.67 µM

Now take the following binder into account.
q: For the binder XINDI (designed binder, also called X-ECM04; αBCLXL) ADPKKVLDKAKDRAENVVRKLKKELEELYKEARKLDLTQEMRDRIRRTAIAARFQAHGDIFHAIKHAKEEARKLKKAGLVNSQQLDELKRRLRELDEEAEQRAEKLGKEFRLKLEY , give its measured Kd value.
a: 40 µM

These entries and their values trace back to patent US20160376333A1.
